B1: Chromodomain-helicase-DNA-binding protein 4, residues 623 to 675; numbered along this chain, Q14839 (parent)
chain: MIHRILNHSVDKKGHVHYLIKWRDLPYDQASWESEDVEIQDYDLFKQSYWNHR

variants of: B1; assay: abundance fitness (aPCA) (normalised: wild type 0, dead -1); higher = more abundant; growth selection in yeast, the domain comes from the species named; conditions: Homo sapiens
// label = Fulfilled if abundance fitness is not less than -0.3, otherwise Not fulfilled

Some entries whose results are on file:
[
  {
    "mutation": "W22P",
    "class.assignment": "Not fulfilled"
  },
  {
    "mutation": "L25Y",
    "class.assignment": "Not fulfilled"
  },
  {
    "mutation": "H15A",
    "class.assignment": "Fulfilled"
  },
  {
    "mutation": "V16D",
    "class.assignment": "Not fulfilled"
  },
  {
    "mutation": "E33F",
    "class.assignment": "Not fulfilled"
  }
]

Data request: Kindly determine if abundance fitness recorded for D28Q is above or exactly -0.3.
Data returned: Not fulfilled

Data request: Moving on to Q29Y
Data returned: Not fulfilled

Data request: Moving on to L19W
Data returned: Not fulfilled

Data request: Moving on to W22V
Data returned: Not fulfilled

Data request: Moving on to K21Y
Data returned: Not fulfilled

Data request: Moving on to D24A
Data returned: Not fulfilled

Data request: Moving on to K13A
Data returned: Fulfilled

Data request: Moving on to K21Q
Data returned: Fulfilled

Data request: Moving on to K21H
Data returned: Fulfilled

Data request: Moving on to K13P
Data returned: Not fulfilled

Data request: Moving on to A30F
Data returned: Not fulfilled

Data request: Moving on to V16R
Data returned: Not fulfilled

Data request: Moving on to V16E
Data returned: Not fulfilled

Data request: Moving on to W22Q
Data returned: Not fulfilled

Data request: Moving on to D28F
Data returned: Not fulfilled

Data request: Moving on to S31T
Data returned: Fulfilled

Data request: Moving on to Y18N
Data returned: Not fulfilled

Data request: Moving on to W32D
Data returned: Not fulfilled

Data request: Moving on to K21F
Data returned: Not fulfilled

Data request: Moving on to W32Q
Data returned: Not fulfilled

Data request: Moving on to L25H
Data returned: Fulfilled
